target: PI3Kγ (Homo sapiens, UniProt P48736); construct: made in house; experiment: TR-FRET enzymatic activity assay, PI3Kγ; type: biochemical; details: recombinant heterodimeric PI3Kγ 2 nM, 2× Km ATP, 30 minutes at 25°C
Sequence (P48736 whole entry): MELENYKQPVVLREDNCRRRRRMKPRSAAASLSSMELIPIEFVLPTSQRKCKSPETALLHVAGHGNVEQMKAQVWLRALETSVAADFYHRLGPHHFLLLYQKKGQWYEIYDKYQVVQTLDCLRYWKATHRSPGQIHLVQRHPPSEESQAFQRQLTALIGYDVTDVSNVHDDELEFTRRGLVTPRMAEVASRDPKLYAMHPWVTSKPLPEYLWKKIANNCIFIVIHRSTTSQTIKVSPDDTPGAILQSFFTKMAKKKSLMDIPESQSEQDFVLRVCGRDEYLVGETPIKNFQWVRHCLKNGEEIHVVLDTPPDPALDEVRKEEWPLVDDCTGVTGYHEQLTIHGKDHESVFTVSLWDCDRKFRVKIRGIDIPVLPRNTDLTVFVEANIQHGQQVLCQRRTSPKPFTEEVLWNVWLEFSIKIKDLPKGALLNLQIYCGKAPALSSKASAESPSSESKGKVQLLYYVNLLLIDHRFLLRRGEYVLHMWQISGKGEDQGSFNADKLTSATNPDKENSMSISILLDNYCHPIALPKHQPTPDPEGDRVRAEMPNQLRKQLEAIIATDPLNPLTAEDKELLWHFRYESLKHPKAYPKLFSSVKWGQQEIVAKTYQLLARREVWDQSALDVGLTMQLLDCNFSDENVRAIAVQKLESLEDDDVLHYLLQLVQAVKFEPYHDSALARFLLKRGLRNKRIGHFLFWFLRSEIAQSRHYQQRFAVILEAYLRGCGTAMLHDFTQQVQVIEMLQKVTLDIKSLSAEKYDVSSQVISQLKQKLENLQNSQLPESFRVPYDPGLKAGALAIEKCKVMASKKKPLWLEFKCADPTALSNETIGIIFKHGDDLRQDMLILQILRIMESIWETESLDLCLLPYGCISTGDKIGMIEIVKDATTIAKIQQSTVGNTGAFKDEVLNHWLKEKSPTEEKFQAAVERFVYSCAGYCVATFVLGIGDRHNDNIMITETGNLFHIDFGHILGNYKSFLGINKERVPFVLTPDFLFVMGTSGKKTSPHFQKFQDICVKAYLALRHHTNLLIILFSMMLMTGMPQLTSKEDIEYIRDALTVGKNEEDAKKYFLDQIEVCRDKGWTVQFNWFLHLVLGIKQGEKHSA
Sequence (Q8WYR1 whole entry partner): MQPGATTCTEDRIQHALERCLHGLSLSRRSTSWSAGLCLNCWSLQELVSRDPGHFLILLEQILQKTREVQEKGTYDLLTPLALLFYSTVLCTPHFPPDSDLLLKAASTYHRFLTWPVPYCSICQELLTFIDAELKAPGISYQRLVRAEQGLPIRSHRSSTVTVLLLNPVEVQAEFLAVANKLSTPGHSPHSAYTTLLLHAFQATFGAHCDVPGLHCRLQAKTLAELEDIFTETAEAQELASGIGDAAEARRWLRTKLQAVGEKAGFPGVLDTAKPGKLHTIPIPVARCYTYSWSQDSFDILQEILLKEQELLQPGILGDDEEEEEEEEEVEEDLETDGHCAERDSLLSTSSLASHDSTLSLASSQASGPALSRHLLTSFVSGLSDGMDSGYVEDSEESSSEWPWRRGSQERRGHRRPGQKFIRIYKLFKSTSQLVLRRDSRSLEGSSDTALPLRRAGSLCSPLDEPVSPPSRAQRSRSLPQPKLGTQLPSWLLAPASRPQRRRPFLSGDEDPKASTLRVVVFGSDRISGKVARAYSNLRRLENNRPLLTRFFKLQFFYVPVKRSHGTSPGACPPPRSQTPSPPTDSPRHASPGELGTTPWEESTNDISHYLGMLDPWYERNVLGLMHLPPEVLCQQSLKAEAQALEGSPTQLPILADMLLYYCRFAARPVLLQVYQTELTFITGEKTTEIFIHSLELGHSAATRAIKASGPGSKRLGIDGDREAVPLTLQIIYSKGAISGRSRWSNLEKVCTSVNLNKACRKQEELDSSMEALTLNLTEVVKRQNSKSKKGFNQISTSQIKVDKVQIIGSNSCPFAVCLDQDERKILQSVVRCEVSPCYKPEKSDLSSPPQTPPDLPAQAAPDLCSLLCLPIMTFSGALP
readout-type: IC50 (µM)

# example entries with known answers
C[C@H](Nc1nc(N)nc(N)c1C#N)c1nc2cccc(Cl)c2c(=O)n1N1CCNCC1 [Compound 57] ... 0.71
Nc1nc(N)c(Cl)c(N[C@H](c2nc3cccc(Cl)c3c(=O)n2N2CCOCC2)C2CC2)n1 [Compound 122] ... 2.2
N#Cc1c(N)nc(N)nc1N[C@H](c1nc2cccc(Cl)c2c(=O)n1N1CCOCC1)C1CC1 [Compound 121] ... 0.19
C[C@H](Nc1nc(N)nc(N)c1C#N)c1nc2cccc(Cl)c2c(=O)n1[C@H]1CCOC1 [Compound 136] ... 0.259
C[C@H](Nc1nc(N)nc(N)c1C#N)c1nc2cccc(Cl)c2c(=O)n1C1CCN(CC(F)F)CC1 [Compound 99] ... 1.6

1 = C[C@H](Nc1nc(N)nc(N)c1C#N)c1nc2cccc(Cl)c2c(=O)n1N1CCN(CC(F)(F)F)CC1 [Compound 107]
2 = C[C@H](Nc1nc(N)nc(N)c1C#N)c1nc2cccc(Cl)c2c(=O)n1N1CCN(C)CC1 [Compound 125]
3 = Cc1nc(N)nc(N[C@@H](C)c2nc3c(F)ccc(Cl)c3c(=O)n2C2[C@H]3CNC[C@@H]23)c1C#N (stereo in doubt) [Compound 16]
Query: Place the items in sequence of falling IC50. Returns: the labels arranged in the requested order.
Reply: 3, 1, 2
(3: 2.6 µM, 1: 0.63 µM, 2: 0.35 µM)

P = C[C@H](Nc1nc(N)nc(N)c1C#N)c1nc2c(Cl)cc(F)cc2c(=O)n1N1CCNCC1 [Compound 126]
Q = C[C@H](Nc1nc(N)nc(Cl)c1C#N)c1nc2cccc(Cl)c2c(=O)n1N1CCN(CC(F)(F)F)CC1 [Compound 110]
R = Cc1nc(N)nc(N[C@@H](C)c2nc3cccc(Cl)c3c(=O)n2N2CCN(CC(F)(F)F)CC2)c1C#N [Compound 109]
S = C[C@H](Nc1nc(N)nc(N)c1C#N)c1nc2cccc(Cl)c2c(=O)n1C1CCN(CC(F)(F)F)CC1 [Compound 100]
Query: Task for the reader: rank each entry by its IC50, from the minimum upward. Quick reminder: the answer is the labels in the order asked.
Reply: R, S, Q, P
(R: 0.66 µM, S: 1.3 µM, Q: 2.8 µM, P: 4.9 µM)

a = C[C@H](Nc1nc(N)nc(N)c1C#N)c1nc2cccc(Cl)c2c(=O)n1C1CCN(CC(F)(F)F)C1 (stereo partly drawn) [Compound 119]
b = C[C@H](Nc1ncnc2scnc12)c1nc2cccc(Cl)c2c(=O)n1N1CCN(CC(F)F)CC1 [Compound 115]
Query: Given the two records a and b , choose the one whose IC50 value is lower. Use the label to indicate which entry you chose.
Reply: a

---

target: PI3Kδ (Homo sapiens); construct: made in house; experiment: TR-FRET enzymatic activity assay, PI3Kδ; format: biochemical; conditions: recombinant heterodimeric PI3Kδ 25-50 pM, 2× Km ATP, 30 minutes at 25°C
Sequence (O00329 whole entry): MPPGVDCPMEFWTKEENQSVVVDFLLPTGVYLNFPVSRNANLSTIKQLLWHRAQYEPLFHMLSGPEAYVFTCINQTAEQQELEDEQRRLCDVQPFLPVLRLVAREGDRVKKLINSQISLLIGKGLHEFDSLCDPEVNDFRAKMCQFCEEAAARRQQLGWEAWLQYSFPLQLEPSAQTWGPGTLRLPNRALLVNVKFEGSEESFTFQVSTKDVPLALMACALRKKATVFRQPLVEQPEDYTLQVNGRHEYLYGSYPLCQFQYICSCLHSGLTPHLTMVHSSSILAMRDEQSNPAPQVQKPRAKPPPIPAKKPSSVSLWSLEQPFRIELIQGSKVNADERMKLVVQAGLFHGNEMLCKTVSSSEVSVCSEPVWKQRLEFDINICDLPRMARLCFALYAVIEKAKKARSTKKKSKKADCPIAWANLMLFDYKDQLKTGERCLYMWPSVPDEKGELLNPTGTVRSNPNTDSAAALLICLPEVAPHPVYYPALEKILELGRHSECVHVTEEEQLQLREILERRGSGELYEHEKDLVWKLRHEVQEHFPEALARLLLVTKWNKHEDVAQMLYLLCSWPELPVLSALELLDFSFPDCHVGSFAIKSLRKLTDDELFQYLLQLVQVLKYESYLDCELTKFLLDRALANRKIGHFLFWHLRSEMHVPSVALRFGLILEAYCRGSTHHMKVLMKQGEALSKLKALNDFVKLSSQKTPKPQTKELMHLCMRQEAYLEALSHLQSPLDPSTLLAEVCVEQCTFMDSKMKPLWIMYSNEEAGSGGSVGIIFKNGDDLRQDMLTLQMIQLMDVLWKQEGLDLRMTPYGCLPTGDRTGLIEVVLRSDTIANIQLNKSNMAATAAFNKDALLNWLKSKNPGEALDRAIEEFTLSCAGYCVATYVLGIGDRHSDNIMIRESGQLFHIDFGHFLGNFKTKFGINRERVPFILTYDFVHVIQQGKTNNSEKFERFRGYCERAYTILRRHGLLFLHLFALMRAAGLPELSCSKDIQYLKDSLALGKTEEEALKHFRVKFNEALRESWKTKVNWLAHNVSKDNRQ
Sequence (P27986 whole entry partner): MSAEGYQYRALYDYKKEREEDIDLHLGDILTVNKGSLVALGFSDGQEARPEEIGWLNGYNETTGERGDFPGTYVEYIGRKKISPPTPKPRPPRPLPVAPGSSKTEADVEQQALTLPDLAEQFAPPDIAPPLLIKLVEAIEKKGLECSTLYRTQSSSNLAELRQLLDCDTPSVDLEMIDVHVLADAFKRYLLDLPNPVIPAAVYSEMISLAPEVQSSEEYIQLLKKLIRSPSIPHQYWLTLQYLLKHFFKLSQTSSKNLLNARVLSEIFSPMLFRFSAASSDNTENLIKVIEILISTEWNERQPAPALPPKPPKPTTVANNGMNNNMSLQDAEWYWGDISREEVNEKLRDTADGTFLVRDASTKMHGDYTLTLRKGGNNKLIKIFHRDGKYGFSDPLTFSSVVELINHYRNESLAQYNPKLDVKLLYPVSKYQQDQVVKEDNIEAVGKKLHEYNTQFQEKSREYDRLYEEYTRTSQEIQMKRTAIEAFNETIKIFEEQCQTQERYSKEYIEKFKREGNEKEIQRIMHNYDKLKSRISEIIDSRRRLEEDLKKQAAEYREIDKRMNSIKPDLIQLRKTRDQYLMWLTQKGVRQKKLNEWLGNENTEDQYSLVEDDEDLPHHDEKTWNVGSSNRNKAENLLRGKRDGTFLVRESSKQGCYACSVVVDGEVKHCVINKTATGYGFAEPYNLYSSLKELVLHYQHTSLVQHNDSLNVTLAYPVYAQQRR
pIC50: −log10 of the molar value.
readout-type: pIC50

Solved entries (count: 2):
C[C@H](Nc1nc(N)nc(N)c1Cl)c1nc2cccc(Cl)c2c(=O)n1N1CCN(CC(F)F)CC1 ... 6.55
C[C@H](Nc1nc(N)nc(N)c1C#N)c1nc2cccc(Cl)c2c(=O)n1C1CNC1 ... 7.51

A = C[C@H](Nc1ncnc2scnc12)c1nc2cccc(Cl)c2c(=O)n1N1CCN(CC(F)F)CC1
B = C[C@H](Nc1ncnc(N)c1C#N)c1nc2cccc(Cl)c2c(=O)n1N1CCCNCC1 [Compound 66]
C = C[C@H](Nc1nc(N)nc(N)c1C#N)c1nc2cccc(Cl)c2c(=O)n1[C@H]1CCNC1
D = N#Cc1c(N)nc(N)nc1N[C@H](c1nc2cccc(Cl)c2c(=O)n1N1CCNCC1)C1CC1
E = CN1CCN(n2c([C@@H](Nc3nc(N)nc(N)c3C#N)C3CC3)nc3cccc(Cl)c3c2=O)CC1
Query: Parameters: sort_field (pIC50), sort_dir (desc). To answer, arrange all of the labels according to the requested order.
Reply: D, B, E, A, C
